Give log10 of IC50 for every item shown.
- system: Human immunodeficiency virus type 1 reverse transcriptase (Human immunodeficiency virus 1)
- assay procedure: Inhibition of recombinant wild type HIV1 p66/p51 using poly(rA) template/oligo(dT)16 primer after 40 mins by PicoGreen-based spectrofluorometric method
Heads up, the numbers here are log10 of IC50 in nM units.

IN: Which log10 of IC50 is listed for Cc1cc(C#N)cc(C)c1Oc1cc(Cl)nc(Nc2ccc(CN3CCOCC3)cc2)c1 ?
OUT: 3.12

IN: log10 of IC50 lookup needed for Cc1cc(C#N)cc(C)c1Oc1cc(Cl)nc(NC2CCN(Cc3ccc(C(N)=O)cc3)CC2)c1 , thanks.
OUT: 1.95

IN: Which value of log10 of IC50 has been reported for COc1cc(Oc2c(C)cc(C#N)cc2C)cc(NC2CCN(Cc3ccc(C(N)=O)cc3)CC2)n1 in the records?
OUT: 2.05

IN: Which log10 of IC50 is reported for this compound? Cc1cc(C)c(Oc2cc(Cl)nc(NC3CCN(Cc4ccc(S(N)(=O)=O)cc4)CC3)c2)c(C)c1
OUT: 2.20

IN: Looking for the measured log10 of IC50 of Cc1cc(C)c(Oc2cc(Cl)nc(NC3CCN(Cc4ccc(C(N)=O)cc4)CC3)c2)c(C)c1 , can you help?
OUT: 1.99

IN: Looking for the measured log10 of IC50 of COc1cc(Oc2c(C)cc(C#N)cc2C)cc(NC2CCN(Cc3ccncc3)CC2)n1 , can you help?
OUT: 1.91

IN: Endpoint output: log10 of IC50 of COc1cc(Oc2c(C)cc(C#N)cc2C)cc(NC2CCN(Cc3ccc(S(C)(=O)=O)cc3)CC2)n1 . Value?
OUT: 2.24

IN: So what's the measured log10 of IC50 for this one? Cc1cc(C)c(Oc2cc(Cl)nc(NC3CCN(Cc4ccccc4)CC3)c2)c(C)c1
OUT: 2.46

IN: Looking for the measured log10 of IC50 of Cc1cc(C#N)cc(C)c1Oc1cc(Cl)nc(Nc2ccc(C#N)cc2)c1 , can you help?
OUT: 2.89

IN: Quick check: log10 of IC50 of Cc1cc(C)c(Oc2cc(Nc3ccc(C#N)cc3)nc(OCCCN3CCOCC3)c2)c(C)c1 ?
OUT: 3.61

IN: Fill blank: measured log10 of IC50 of the compound Cc1cc(C)c(Oc2cc(Cl)nc(NC3CCN(Cc4ccncc4)CC3)c2)c(C)c1 is ____.
OUT: 1.91

IN: Which log10 of IC50 is listed for Cc1cc(C#N)cc(C)c1Oc1cc(Cl)nc(NC2CCN(Cc3ccccc3)CC2)c1 ?
OUT: 2.23

IN: Could you tell me which log10 of IC50 is on file for Cc1cc(C)c(Oc2cc(Cl)nc(NC3CCN(Cc4ccc(S(C)(=O)=O)cc4)CC3)c2)c(C)c1 ?
OUT: 2.20

IN: Query: log10 of IC50; subject: Cc1cc(C#N)cc(C)c1Oc1cc(Cl)nc(NC2CCN(Cc3ccc(S(C)(=O)=O)cc3)CC2)c1
OUT: 1.90

IN: Query: log10 of IC50; subject: Cc1cc(C)c(Oc2cc(Cl)nc(Nc3ccc(C#N)cc3)c2)c(C)c1
OUT: 2.39

IN: Returns the measured log10 of IC50 for the input compound. Input: COc1cc(Oc2c(C)cc(C#N)cc2C)cc(NC2CCN(Cc3ccccc3)CC2)n1
OUT: 2.42

IN: Looking for the measured log10 of IC50 of Cc1cc(C#N)cc(C)c1Oc1cc(Cl)nc(NC2CCN(Cc3ccc(S(N)(=O)=O)cc3)CC2)c1 , can you help?
OUT: 1.76

IN: Fill in the blank: the reported log10 of IC50 of Cc1cc(C)c(Oc2cc(Cl)nc(Nc3ccc(CN4CCOCC4)cc3)c2)c(C)c1 is ____.
OUT: 3.42

IN: Find the recorded log10 of IC50 belonging to COc1cc(Oc2c(C)cc(C#N)cc2C)cc(NC2CCN(Cc3ccc(S(N)(=O)=O)cc3)CC2)n1 and report it.
OUT: 2.12

IN: Please look up its log10 of IC50: Cc1cc(C#N)cc(C)c1Oc1cc(Cl)nc(NC2CCN(Cc3ccncc3)CC2)c1
OUT: 1.60
